target-system: NAD-dependent protein deacetylase sirtuin-2 (Homo sapiens, UniProt Q8IXJ6)
Sequence (Q8IXJ6 whole entry): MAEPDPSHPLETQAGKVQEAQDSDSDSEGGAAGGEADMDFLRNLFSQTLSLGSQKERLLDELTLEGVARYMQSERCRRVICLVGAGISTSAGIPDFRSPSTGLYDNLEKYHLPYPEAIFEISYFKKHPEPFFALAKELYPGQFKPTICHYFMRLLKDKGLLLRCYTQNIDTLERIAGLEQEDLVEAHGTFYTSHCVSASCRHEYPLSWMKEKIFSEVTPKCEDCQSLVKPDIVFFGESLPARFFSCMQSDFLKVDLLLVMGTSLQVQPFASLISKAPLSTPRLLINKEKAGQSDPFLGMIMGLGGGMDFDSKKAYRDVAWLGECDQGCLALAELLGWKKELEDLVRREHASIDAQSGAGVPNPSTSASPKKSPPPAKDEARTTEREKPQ
measured-property: pIC50
Units for pIC50: none; it is -log10 of a concentration expressed in mol/L.

// sample CC(=O)NCCC[C@H](NC(=O)[C@H](CCCCNC(C)=S)NC(=O)[C@H](CCCNC(C)=O)NC(C)=O)C(N)=O , its pIC50 was 5.54
